# assayed_target: Prostaglandin E2 receptor EP1 subtype (Homo sapiens)
# protocol_details: Displacement of [3H]PGE2 from human recombinant EP1 receptor expressed in CHO cell membrane
# Type: cell membranes
# stated_conditions: read-out: Log IC50 (converted)
Documented IC50 across a set of compounds
Units required after the number.

Some compounds with known IC50 results, for comparison:
Cc1ccc(S(=O)(=O)N(Cc2nnc(Cc3c(Cl)cccc3Cl)o2)c2cccc(Cl)c2C)cc1 | 63.1 nM
CCc1ccccc1N(Cc1nnc(Cc2ccc(Cl)cc2)o1)S(=O)(=O)c1ccc(C)cc1 | 398 nM
COc1ccc(Nc2nnc(CN(c3cccc(Cl)c3Cl)S(=O)(=O)c3ccc(C)cc3)o2)cc1 | 39.8 nM
Cc1ccc(S(=O)(=O)N(CC(=O)NCCc2ccc(Cl)cc2)c2ccccc2C)cc1 | 251 nM
COc1ccc(Cc2nnc(CN(c3cccc(C(F)(F)F)c3C)S(=O)(=O)c3ccc(C)cc3)o2)cc1 | 63.1 nM
CCc1ccccc1N(Cc1nnc(Cc2ccccc2)o1)S(=O)(=O)c1ccc(C)cc1 | 1000 nM
COc1ccc(Cc2nnc(CN(c3cccc(Cl)c3Cl)S(=O)(=O)c3ccc(Cl)cc3)o2)cc1 | 20 nM
COc1ccc(Nc2nnc(CN(c3cccc(Cl)c3Cl)S(=O)(=O)c3ccc(C(F)(F)F)cc3)o2)cc1 | 7.94 nM

// next item, IC50 requested
Can you share its IC50? I mean this compound: CCc1ccccc1N(CC(=O)NCCc1ccc(OC)c(OC)c1)S(=O)(=O)c1ccc(C)cc1 7.94 nM

----------
# assayed_target: Prostaglandin E2 receptor EP1 subtype (Homo sapiens, UniProt P34995)
# protocol_details: Displacement of [3H]PGE2 from human recombinant EP1 receptor expressed in CHO cell membrane
# Format: cell membranes
# stated_conditions: read-out: Log IC50 (converted)
quantity_measured: IC50 (nM)
Express it in nM; write the number only.

Some compounds with known IC50 results, for comparison:
Cc1ccc(S(=O)(=O)N(Cc2nnc(Cc3ccc(C(F)(F)F)cc3)o2)c2cccc(Cl)c2C)cc1 | 50.1
COc1ccc(Nc2nnc(CN(c3cccc(Cl)c3C)S(=O)(=O)c3ccc(C)cc3)o2)cc1 | 31.6
Cc1ccc(S(=O)(=O)N(Cc2nnc(Cc3ccc(F)cc3)o2)c2cccc(Cl)c2C)cc1 | 200

// next item, IC50 requested
Can you share its IC50? I mean this compound: COc1ccc(NCc2nnc(CN(c3cccc(Cl)c3C)S(=O)(=O)c3ccc(C)cc3)o2)cc1 20

----------
# assayed_target: Prostaglandin E2 receptor EP1 subtype (Homo sapiens)
# Sequence (P34995 whole entry): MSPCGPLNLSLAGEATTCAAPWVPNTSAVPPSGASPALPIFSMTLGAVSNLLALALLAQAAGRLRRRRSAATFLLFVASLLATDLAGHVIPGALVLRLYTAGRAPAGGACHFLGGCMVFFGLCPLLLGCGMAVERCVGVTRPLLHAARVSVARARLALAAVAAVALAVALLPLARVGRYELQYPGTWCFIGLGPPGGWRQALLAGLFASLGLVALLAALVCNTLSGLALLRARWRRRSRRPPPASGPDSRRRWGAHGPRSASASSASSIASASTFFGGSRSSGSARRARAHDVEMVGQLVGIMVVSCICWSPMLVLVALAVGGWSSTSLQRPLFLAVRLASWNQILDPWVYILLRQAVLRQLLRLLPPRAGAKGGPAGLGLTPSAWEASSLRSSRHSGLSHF
# protocol_details: Antagonist activity at human recombinant EP1 receptor expressed in CHO cells assessed as inhibition of PGE2-induced calcium mobilization by FLIPR
quantity_measured: pKi
Field pKi (float): negative decimal logarithm of the concentration in molar.

Some compounds with known pKi results, for comparison:
CCOc1ccc(Cc2nnc(CN(c3ccccc3CC)S(=O)(=O)c3ccc(C)cc3)o2)cc1 | 7.40
CCc1ccccc1N(Cc1nnc(COc2ccc(OC)cc2)o1)S(=O)(=O)c1ccc(C)cc1 | 6.90
Cc1ccc(S(=O)(=O)N(Cc2nnc(Cc3ccc(N(C)C)cc3)o2)c2cccc(Cl)c2C)cc1 | 7.70

// next item, pKi requested
Can you share its pKi? I mean this compound: CCc1ccccc1N(Cc1nnc(Cc2ccc(Cl)cc2)o1)S(=O)(=O)c1ccc(C)cc1 6.50

----------
# assayed_target: UniProt:P34995
# protocol_details: Antagonist activity at human recombinant EP1 receptor expressed in CHO cells assessed as inhibition of PGE2-induced calcium mobilization by FLIPR
Documented pKi across a set of compounds
Field pKi (float): negative decimal logarithm of the concentration in molar.

CCOc1ccc(Cc2nnc(CN(c3cccc(Cl)c3C)S(=O)(=O)c3ccc(C)cc3)o2)cc1 | 7.30
CCc1ccccc1N(Cc1nnc(Oc2ccc(OC)cc2)o1)S(=O)(=O)c1ccc(C)cc1 | 7.00
COc1ccc(Nc2nnc(CN(c3cccc(Cl)c3C)S(=O)(=O)c3ccc(C)cc3)o2)cc1 | 7.10
Cc1ccc(S(=O)(=O)N(Cc2nnc(Cc3ccc(Cl)cc3Cl)o2)c2cccc(Cl)c2C)cc1 | 6.00
CCc1ccccc1N(Cc1nnc(CNc2ccc(OC)cc2)o1)S(=O)(=O)c1ccc(C)cc1 | 6.10
CCOc1ccc(Cc2nnc(CN(c3cccc(Cl)c3Cl)S(=O)(=O)c3ccc(C)cc3)o2)cc1 | 7.50
Cc1ccc(S(=O)(=O)N(Cc2nnc(Cc3cccc(Cl)c3)o2)c2cccc(Cl)c2C)cc1 | 5.70
COc1ccc(Cc2nnc(CN(c3cccc(Cl)c3Cl)S(=O)(=O)c3ccc(C)cc3)o2)cc1 | 7.40
CCOc1ccc(Cc2nnc(CN(c3cccc(Cl)c3Cl)S(=O)(=O)c3ccc(C(F)(F)F)cc3)o2)cc1 | 8.20
Cc1ccc(S(=O)(=O)N(Cc2nnc(Cc3cccc(F)c3)o2)c2cccc(Cl)c2C)cc1 | 6.30

Can you share its pKi? I mean this compound: Cc1ccc(S(=O)(=O)N(Cc2nnc(Cc3c(Cl)cccc3Cl)o2)c2cccc(Cl)c2C)cc1 6.30

Can you share its pKi? I mean this compound: Cc1ccc(S(=O)(=O)N(Cc2nnc(Cc3ccccc3F)o2)c2cccc(Cl)c2C)cc1 6.20

----------
Documented IC50 across a set of molecules
# assayed_target: UniProt P34995
# protocol_details: Displacement of [3H]PGE2 from human recombinant EP1 receptor expressed in CHO cell membrane
# Format: cell membranes
# stated_conditions: read-out: Log IC50 (converted)
Express it in nM; write the number only.

Some molecules with known IC50 results, for comparison:
Cc1ccc(S(=O)(=O)N(Cc2nnc(Cc3cccc(Cl)c3)o2)c2cccc(Cl)c2C)cc1 | 158
CCOc1ccc(Cc2nnc(CN(c3ccccc3CC)S(=O)(=O)c3ccc(C)cc3)o2)cc1 | 126
CCc1ccccc1N(Cc1nnc(CNc2ccc(OC)cc2)o1)S(=O)(=O)c1ccc(C)cc1 | 501
CCOc1ccc(Cc2nnc(CN(c3cccc(Cl)c3Cl)S(=O)(=O)c3ccc(C(F)(F)F)cc3)o2)cc1 | 2.51
Cc1ccc(S(=O)(=O)N(Cc2nnc(Cc3ccc(Cl)cc3Cl)o2)c2cccc(Cl)c2C)cc1 | 63.1
CCOc1ccc(Cc2nnc(CN(c3cccc(Cl)c3C)S(=O)(=O)c3ccc(C)cc3)o2)cc1 | 3.98
CCc1ccccc1N(Cc1nnc(COc2ccc(OC)cc2)o1)S(=O)(=O)c1ccc(C)cc1 | 25.1
Cc1ccc(S(=O)(=O)N(Cc2nnc(Cc3cccc(F)c3)o2)c2cccc(Cl)c2C)cc1 | 316
COc1ccc(Cc2nnc(CN(c3cccc(Cl)c3Cl)S(=O)(=O)c3ccc(C)cc3)o2)cc1 | 7.94
CCOc1ccc(Cc2nnc(CN(c3cccc(Cl)c3Cl)S(=O)(=O)c3ccc(C)cc3)o2)cc1 | 6.31

// next item, IC50 requested
Can you share its IC50? I mean this molecule: COc1ccc(Cc2nnc(CN(c3cccc(Cl)c3C)S(=O)(=O)c3ccc(C)cc3)o2)cc1 6.31

----------
Documented Ki across a set of molecules
# assayed_target: Prostaglandin E2 receptor EP1 subtype (Homo sapiens)
# protocol_details: Antagonist activity at human recombinant EP1 receptor expressed in CHO cells assessed as inhibition of PGE2-induced calcium mobilization by FLIPR
Express it in nM; write the number only.

Some molecules with known Ki results, for comparison:
COc1ccc(Cc2nnc(CN(c3cccc(C(F)(F)F)c3C)S(=O)(=O)c3ccc(C)cc3)o2)cc1 | 398
COc1ccc(Cc2nnc(CN(c3cccc(Cl)c3Cl)S(=O)(=O)c3ccc(Cl)cc3)o2)cc1 | 63.1
COc1ccc(Nc2nnc(CN(c3cccc(Cl)c3Cl)S(=O)(=O)c3ccc(C)cc3)o2)cc1 | 50.1

Can you share its Ki? I mean this molecule: CCc1ccccc1N(Cc1nnc(Cc2ccccc2)o1)S(=O)(=O)c1ccc(C)cc1 398

Can you share its Ki? I mean this molecule: Cc1ccc(S(=O)(=O)N(Cc2nnc(Cc3ccc(F)cc3)o2)c2cccc(Cl)c2C)cc1 501

----------
# assayed_target: UniProt P34995
# protocol_details: Antagonist activity at human recombinant EP1 receptor expressed in CHO cells assessed as inhibition of PGE2-induced calcium mobilization by FLIPR
quantity_measured: Ki
Units required after the number.

What value of Ki on UniProt P34995 does Cc1ccc(S(=O)(=O)N(Cc2nnc(Cc3ccccc3Cl)o2)c2cccc(Cl)c2C)cc1 have? 398 nM

What value of Ki on UniProt P34995 does COc1ccc(NCc2nnc(CN(c3cccc(Cl)c3C)S(=O)(=O)c3ccc(C)cc3)o2)cc1 have? 79.4 nM
